FYI, the data here is from patent US11286268B1.

Each entry below lists one item and its recorded pIC50 value.
biological target: recombinant eIF4E (Homo sapiens (Human), UniProt P06730); assay: Fluorescence polarization competition assay for eIF4E binding potency; conditions: inhibition of eIF4E/EDA-m7GDP-ATTO-550 binding by 50%; Table 4B calculated values; read-out: IC50
Sequence (P06730 whole entry): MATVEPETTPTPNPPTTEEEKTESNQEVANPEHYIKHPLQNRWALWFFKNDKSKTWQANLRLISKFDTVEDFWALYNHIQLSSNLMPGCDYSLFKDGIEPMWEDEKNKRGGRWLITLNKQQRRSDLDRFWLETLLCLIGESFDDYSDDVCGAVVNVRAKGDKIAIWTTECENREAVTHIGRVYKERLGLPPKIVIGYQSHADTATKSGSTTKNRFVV
In simple prose, pIC50 is minus the logarithm base ten of a concentration in moles per litre.

Give the measured pIC50 for CCc1cc(-c2c(C(F)(F)F)cc3nc(C)n(CCOc4ccc(Cl)cc4-c4cc(C)nc5c(C(=O)O)csc45)c(=O)c3c2C#N)ccn1 [compound 468]
8.36

---
Give the measured pIC50 for C#Cc1c(C(=O)O)cccc1-c1cc(Cl)ccc1OCCn1c(C)nc2cncc(C#N)c2c1=O [compound 155]
7.34

Give the measured pIC50 for Cc1nc2cc(C(F)(F)F)c(N3CCN(C)CC3)c(C#N)c2c(=O)n1CCOc1ccc(Cl)cc1-c1ccnc2c(C(=O)O)csc12 [compound 834]
7.50

Give the measured pIC50 for Cc1cc(-c2cc(Cl)ccc2OCCn2c(C)nc3cc(C(F)(F)F)c(-c4ccccn4)cc3c2=O)c2scc(C(=O)O)c2n1 [compound 426]
7.39

Give the measured pIC50 for Cc1cccc(-c2ncc3nc(C)n(CCOc4ccc(Cl)cc4-c4cc(C)nc5c(C(=O)O)csc45)c(=O)c3c2C#N)c1 [compound 945]
7.41

Give the measured pIC50 for Cc1cc(-c2cc(Cl)ccc2OCCn2c(C)nc3ccc(OC(C)C)c(C#N)c3c2=O)c2scc(C(=O)O)c2n1 [compound 371]
7.70
